SUBJECT OF TEST: PI3Kα H1047R (T47D cells) (Homo sapiens, UniProt P42336, H1047R)
Construct: endogenous in cells; host or cells: T47D cells
Sequence (P42336 whole entry H1047R): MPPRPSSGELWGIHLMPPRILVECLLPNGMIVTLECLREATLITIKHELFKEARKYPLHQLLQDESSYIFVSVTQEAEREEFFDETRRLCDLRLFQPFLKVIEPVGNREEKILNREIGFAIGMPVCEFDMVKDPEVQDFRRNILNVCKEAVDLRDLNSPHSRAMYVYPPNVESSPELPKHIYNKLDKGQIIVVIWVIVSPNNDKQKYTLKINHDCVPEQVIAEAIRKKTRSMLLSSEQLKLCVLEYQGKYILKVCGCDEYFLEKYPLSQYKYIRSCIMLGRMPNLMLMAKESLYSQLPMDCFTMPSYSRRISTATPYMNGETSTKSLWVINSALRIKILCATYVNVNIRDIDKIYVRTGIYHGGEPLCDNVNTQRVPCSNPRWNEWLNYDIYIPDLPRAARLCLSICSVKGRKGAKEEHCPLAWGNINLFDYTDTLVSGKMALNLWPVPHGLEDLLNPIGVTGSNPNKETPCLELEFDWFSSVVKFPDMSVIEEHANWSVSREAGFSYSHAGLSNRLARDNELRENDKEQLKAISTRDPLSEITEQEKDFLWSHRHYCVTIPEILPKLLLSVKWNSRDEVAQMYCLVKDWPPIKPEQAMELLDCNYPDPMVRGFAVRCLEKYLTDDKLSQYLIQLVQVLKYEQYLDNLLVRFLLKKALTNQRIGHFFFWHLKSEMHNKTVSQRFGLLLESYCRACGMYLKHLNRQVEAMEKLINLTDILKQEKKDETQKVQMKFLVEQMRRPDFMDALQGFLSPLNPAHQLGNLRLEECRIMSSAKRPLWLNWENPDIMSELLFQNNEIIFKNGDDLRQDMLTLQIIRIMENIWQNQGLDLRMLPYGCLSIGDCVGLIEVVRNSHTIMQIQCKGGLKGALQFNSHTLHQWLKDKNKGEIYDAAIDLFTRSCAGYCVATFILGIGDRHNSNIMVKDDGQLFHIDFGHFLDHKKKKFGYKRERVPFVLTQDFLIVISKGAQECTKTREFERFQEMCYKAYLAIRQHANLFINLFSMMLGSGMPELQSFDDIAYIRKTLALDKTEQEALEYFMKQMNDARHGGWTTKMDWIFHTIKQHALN
Sequence (P27986 whole entry partner): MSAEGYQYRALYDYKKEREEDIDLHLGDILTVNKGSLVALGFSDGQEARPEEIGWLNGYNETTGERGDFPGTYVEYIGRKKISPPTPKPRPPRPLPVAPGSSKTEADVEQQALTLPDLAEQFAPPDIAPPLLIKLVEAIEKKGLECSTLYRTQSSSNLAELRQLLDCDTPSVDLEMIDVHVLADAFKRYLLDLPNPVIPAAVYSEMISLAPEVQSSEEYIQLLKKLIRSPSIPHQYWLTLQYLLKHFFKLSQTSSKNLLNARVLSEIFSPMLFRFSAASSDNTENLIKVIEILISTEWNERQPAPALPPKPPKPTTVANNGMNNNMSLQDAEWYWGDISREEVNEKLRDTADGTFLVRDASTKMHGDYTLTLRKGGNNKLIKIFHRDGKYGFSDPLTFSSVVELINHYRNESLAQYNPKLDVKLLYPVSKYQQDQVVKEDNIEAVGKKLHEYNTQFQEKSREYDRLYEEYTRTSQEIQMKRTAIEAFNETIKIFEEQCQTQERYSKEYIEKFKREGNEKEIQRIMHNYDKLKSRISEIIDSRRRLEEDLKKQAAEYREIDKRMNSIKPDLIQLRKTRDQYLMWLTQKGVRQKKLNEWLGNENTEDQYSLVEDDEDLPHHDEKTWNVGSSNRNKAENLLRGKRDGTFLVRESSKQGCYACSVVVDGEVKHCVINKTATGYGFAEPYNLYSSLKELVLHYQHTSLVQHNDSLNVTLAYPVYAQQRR
MEASUREMENT PROTOCOL: PI3Kα cellular assay: pAKT HTRF in T47D cells after EGF stimulation
Assay type: cell-based
CONDITION INFO: T47D cells (PI3Kα H1047R), pAKT S473 HTRF, 1 hr compound, 20 ng/ml EGF 10 min
Method: SKBR3 or T47D cells are seeded in DMEM containing 10% FBS at 25k cells/well into 96-well cell culture format. […] 384 well plate is left overnight at room temperature before reading HTRF on an Envision plate reader. ND denotes value not determined with that assay for the specified compound; • for T47D (H1047R) selectivity over SKBR3 (WT): A denotes >20-fold; B denotes 20-fold≥value>5-fold; C denotes ≤5-fold. […] ND denotes value not determined with that assay for the specified compound.
pIC50: −log10 of the molar value.

{"COMPOUND": "Cc1cc(C(C)Nc2ccccc2C(=O)O)c2nc(-c3ccc4c(c3)c(N)nn4C)cc(=O)n2c1 (single isomer, unassigned) [Compound 535]", "pIC50": "< 5.70"}
{"COMPOUND": "Cc1cc(C(C)Nc2ccccc2C(=O)O)c2nc(N3CCSCC3)cc(=O)n2c1 (stereo not drawn) [Compound 240]", "pIC50": "> 7.00"}
{"COMPOUND": "Cc1cc([C@@H](C)Nc2ccccc2C(=O)O)c2nc(N3C[C@@H](C)O[C@@H](C)C3)cc(=O)n2c1", "pIC50": "6.30 to 7.00"}
{"COMPOUND": "Cc1cc([C@@H](C)Nc2ccccc2C(=O)O)c2nc(-c3ccc4[nH]c(=O)[nH]c4c3)cc(=O)n2c1", "pIC50": "6.30 to 7.00"}
{"COMPOUND": "Cc1cc([C@H](C)Nc2cccc(F)c2C(=O)O)c2nc(N3CCOCC3)cc(=O)n2c1", "pIC50": "< 5.70"}
{"COMPOUND": "Cc1cc([C@@H](C)Nc2ccccc2C(=O)O)c2nc(-c3ccc(CC4CCN(C)CC4)cc3)c(C)c(=O)n2c1", "pIC50": "5.70 to 6.30"}

###

SUBJECT OF TEST: PI3Kα H1047R (T47D cells) (Homo sapiens, UniProt P42336, H1047R)
Construct: endogenous in cells; host or cells: T47D cells
MEASUREMENT PROTOCOL: PI3Kα cellular assay: pAKT HTRF in T47D cells after EGF stimulation
Format: cell-based
CONDITION INFO: selectivity T47D (H1047R) over SKBR3 (WT), pAKT HTRF
MEASURED METRIC: T47D pAKT S473 HTRF IC50 (H1047R): T47D (H1047R) selectivity over SKBR3 (WT)

{"COMPOUND": "Cc1cc([C@H](C)Nc2ccccc2C(=O)O)c2nc(N3C[C@@H]4CC(F)(F)C[C@@H]4C3)cc(=O)n2c1 (single isomer, unassigned) [Compound 583]", "EXPERIMENTAL VALUE": "A (A denotes >20-fold)"}
{"COMPOUND": "Cc1cc([C@H](C)Nc2ccccc2C(=O)O)c2nc(-c3ccnc(C4CC4)c3)cc(=O)n2c1 [Compound 1156]", "EXPERIMENTAL VALUE": "A (A denotes >20-fold)"}
